assayed.system: T1, recombinant human HER2 extracellular domain protein (human, UniProt P04626 23-652)
T1 construct: range 23-652; Range is printed for the immunogen/panning protein; also called ErbB2; recombinant HER2 protein
method.description: BLI (ForteBio)
measurement.type: koff (s⁻¹)
Give your result in s⁻¹ as a bare value.

binder	koff [s⁻¹]
Hu2117KH (Fc fusion, not shown: human IgG1 Fc) scFv: DIQMTQSPSSLSASVGDRVTITCRSSQSLVHSNGNTYLHWYQQKPGKAPKLLIYKVSNRFSGVPSRFSGSGSGTDFTLTISSLQPEDFATYFCSQSTHVPYTFGQGTKVEIKGGGGSGGGGSGGGGSEVQLVESGGGLVQPGGSLRLSCAASGFTYSSYGMSWVRQAPGKGLEWVASISGGGSYTKYPDSVKGRFTISRDNSKNTLYLQMNSLRAEDTAVYYCARDYAGFFDVWGQGTLVTVSS	0.00381
Hu2117HK (Fc fusion, Hu2117-H1 + Hu2117-K1; also called hu2117-H1K1; humanized single-chain antibody Hu2117HK; not shown: human IgG1 Fc) scFv: EVQLVESGGGLVQPGGSLRLSCAASGFTYSSYGMSWVRQAPGKGLEWVASISGGGSYTKYPDSVKGRFTISRDNSKNTLYLQMNSLRAEDTAVYYCARDYAGFFDVWGQGTLVTVSSGGGGSGGGGSGGGGSDIQMTQSPSSLSASVGDRVTITCRSSQSLVHSNGNTYLHWYQQKPGKAPKLLIYKVSNRFSGVPSRFSGSGSGTDFTLTISSLQPEDFATYFCSQSTHVPYTFGQGTKVEIK	0.00296
Mu2117KH (Fc fusion, scFv-hIgG1 Fc fusion of mAb2117 V regions, VL-(G4S)3-VH; also called chimeric single-chain antibody control; not shown: human IgG1 Fc) scFv: DVVLTQTPLSLPVSLGDQASISCRSSQSLVHSNGNTYLHWYLQKPGQSPKLLIYKVSNRFSGVPDRFSGSGSGTDFTLKISRVEAEDLGVYFCSQSTHVPYTFGGGTKLEIKGGGGSGGGGSGGGGSEVKIEESGGGLVKPGGSLKLSCAASGFTYSSYGMSWVRQTPEKRLEWVASISGGGSYTKYPDSVKGRFTISRDNAKNHLYLQMSSLRSEDTALYYCARDYAGFFDVWGAGTTVTVSS	0.00545

Next binder, koff to be filled in.
(Q) Reported koff for Mu2117HK (Fc fusion, scFv-hIgG1 Fc fusion of mAb2117 V regions, VH-(G4S)3-VL; also called chimeric single-chain antibody control; not shown: human IgG1 Fc) scFv: EVKIEESGGGLVKPGGSLKLSCAASGFTYSSYGMSWVRQTPEKRLEWVASISGGGSYTKYPDSVKGRFTISRDNAKNHLYLQMSSLRSEDTALYYCARDYAGFFDVWGAGTTVTVSSGGGGSGGGGSGGGGSDVVLTQTPLSLPVSLGDQASISCRSSQSLVHSNGNTYLHWYLQKPGQSPKLLIYKVSNRFSGVPDRFSGSGSGTDFTLKISRVEAEDLGVYFCSQSTHVPYTFGGGTKLEIK : what is it?
(A) 0.00523
